Tested on: CCRF-CEM leukemia
PROCEDURE TEXT: NCI tumour cell line growth inhibition, 48 h
READOUT LABEL: GI50

| MOLECULE | STUDY SYSTEM | OBSERVED MEASUREMENT |
| --- | --- | --- |
| CCC(=O)O[C@H]1CC[C@H]2[C@@H]3CC[C@H]4CC(=O)[C@H](C)C[C@]4(C)[C@H]3CC[C@]12C | CCRF-CEM leukemia | 18.8 µM |
| O=C(/C=C/C12c3ccccc3C(c3ccccc31)C1C(=O)N(c3ccccc3)C(=O)C12)c1ccccc1 (centres undefined) | CCRF-CEM leukemia | 1.45 µM |
| CCCCCCCNc1nc(C(=O)OCC)ncc1-c1ccc(C(F)(F)F)cc1 | CCRF-CEM leukemia | 29.5 µM |
| COc1ccc2c(c1)/C(=C\c1cccnc1)C(=O)N2 | CCRF-CEM leukemia | 10.8 µM |

* * *

Test system: IGROV1 ovarian
PROCEDURE TEXT: NCI tumour cell line growth inhibition, 48 h
TGI: recorded values
READOUT LABEL: TGI (µM)

| COMPOUND | READOUT LABEL | VALUE COMPARATOR | OBSERVED MEASUREMENT |
| --- | --- | --- | --- |
| CCN(CC)CCNc1ccc([N+](=O)[O-])c2sc3ccccc3c(=O)c12 | TGI | = | 1.02 |
| O=C(Nc1cccc([N+](=O)[O-])c1)C(=O)C(C(=O)c1ccccc1-c1ccccc1)C1OC(=O)c2ccccc21 (stereo not given) | TGI | = | 98.8 |
| Nc1nc2c(c(=O)[nH]1)NC(CO)CN2 (stereo not given) | TGI | > | 100 |
| CC(=O)NNc1nc(C)c(C(=O)NNC(=O)C(=O)Nc2c(C)cccc2C)s1 | TGI | > | 100 |
| OC1c2ccccc2C2(O)C1C(c1ccccc1)C(c1ccccc1)C2(O)c1ccccc1 (stereo not given) | TGI | = | 82.9 |

* * *

Test system: SK-OV-3 ovarian
PROCEDURE TEXT: NCI tumour cell line growth inhibition, 48 h
TGI: recorded values
READOUT LABEL: TGI

| COMPOUND | STUDY SYSTEM | OBSERVED MEASUREMENT |
| --- | --- | --- |
| O=C(CCN1CCCC1)Nc1ccc2sc3ccccc3c(=O)c2n1 | SK-OV-3 ovarian | 14.3 µM |
| COC(=O)[C@H]1[C@@H](C(C)C)O[C@@H](C(C)C)O[C@H]1C(F)(F)F | SK-OV-3 ovarian | > 100 µM |
| O=C(NCc1cccc(C(F)(F)F)c1)c1cc2sccc2nc1C(F)(F)F | SK-OV-3 ovarian | > 100 µM |
| COc1ccc(/C=c2\[nH]c3nc(=O)c(N4CCOCC4)c(N)n3c2=O)cc1 | SK-OV-3 ovarian | > 100 µM |
| COc1ccc(-c2oc3c(OC)c(OC)c(OC)c(O)c3c(=O)c2OC)cc1OC | SK-OV-3 ovarian | 63.8 µM |
| CC(=O)Nc1ccc(C(=O)NN2C(=O)C(Cl)C2c2ccc([N+](=O)[O-])cc2)cc1 (stereo unspecified) | SK-OV-3 ovarian | > 100 µM |
| CC1CC#CCOC(=O)CCCC1=O (stereo unspecified) | SK-OV-3 ovarian | > 100 µM |
| C/C(=C\c1ccccn1)c1ccccn1 | SK-OV-3 ovarian | > 100 µM |
| COC[C@@H](N=CN1CCc2cc(OC)c(OC)cc2[C@@H]1C)C(C)(C)C | SK-OV-3 ovarian | > 100 µM |
| Cc1ccc(C(=O)O)c(CC2Cc3c(C)cccc3C2=O)c1 (stereo unspecified) | SK-OV-3 ovarian | > 100 µM |
| COC(=O)C1CCC(=O)N1C(=O)Cc1ccc(OC)cc1 (stereo unspecified) | SK-OV-3 ovarian | > 100 µM |

* * *

System: SK-MEL-5 melanoma
PROCEDURE TEXT: NCI tumour cell line growth inhibition, 48 h
GI50: recorded values
READOUT LABEL: GI50

| MOLECULE | READOUT LABEL | OBSERVED MEASUREMENT |
| --- | --- | --- |
| COc1cc(/C=C2\CCC/C(=C\c3cc(OC)c(O)c(OC)c3)C2=O)cc(OC)c1O | GI50 | 2.83 µM |
| O=C(Nc1ccc(F)cc1)c1ccc(NC2=C(Cl)C(=O)N(Cc3ccccc3)C2=O)cc1 | GI50 | 18.5 µM |
| COc1ccc(-c2nc3sc(-c4ccc(Cl)cc4)cn3n2)cc1 | GI50 | 14 µM |
| Cc1ccc(S(=O)(=O)NCCNC2=CC(=O)c3nc4ccccc4c4ccnc2c34)cc1 | GI50 | 14.6 µM |
| CCCc1c(CC)c(=N)c2ccccc2n1C | GI50 | 24.9 µM |
| O=C(/C=C/C12c3ccccc3C(c3ccccc31)C1C(=O)N(c3ccccc3)C(=O)C12)c1ccccc1 (stereo unspecified) | GI50 | 2.29 µM |

* * *

TGI: recorded values
Test system: RXF 393 renal
PROCEDURE TEXT: NCI tumour cell line growth inhibition, 48 h
READOUT LABEL: TGI (µM)

| COMPOUND | READOUT UNITS | VALUE COMPARATOR | OBSERVED MEASUREMENT |
| --- | --- | --- | --- |
| COc1ccc(Nc2ncc(Br)c(NCCCNC(=O)C3CCC3)n2)cc1 | µM | = | 8.56 |
| CC(C)=CCC[C@@H](C)C1=C(Nc2ccccc2Cl)C(O)=C(C)C(=O)C1=O | µM | = | 32.7 |
| O=[N+]([O-])c1ccc(S[C@@H]2[C@H]3c4c(-c5ccccc5)[nH]c(-c5ccccc5)c4[C@@H]2C[C@H]3Cl)cc1 | µM | = | 4.3 |
| CCOC(=O)c1c(N2CCCC2)ncn(-c2ccccc2)c1=S | µM | > | 100 |
| CC(=O)Nc1ccc(C(=O)NN2C(=O)C(Cl)C2c2ccc([N+](=O)[O-])cc2)cc1 (stereo unspecified) | µM | > | 100 |
| O=C1NC(=O)/C(=C/c2ccc(S(=O)(=O)N/N=C/c3ccc(Cl)cc3)cc2)N1 | µM | > | 100 |
| COc1cc(/C=C2\CCC/C(=C\c3cc(OC)c(O)c(OC)c3)C2=O)cc(OC)c1O | µM | = | 3.22 |
| COc1ccc(-c2nc3sc(-c4ccc(Cl)cc4)cn3n2)cc1 | µM | = | 39.7 |
| CC(C)C1(O)C(c2ccccc2)=C(c2ccccc2)C(c2ccccc2)=C1c1ccccc1 | µM | = | 13.3 |
| NC1CCCCC1.[O]=[Ge].[O]=[Ge].[O]=[Ge][OH].[O]=[Ge][OH] | µM | > | 100 |
| O=C(O)[C@@H]1[C@H](C(=O)O)[C@H](C(=O)O)C[C@@H]1C(=O)O | µM | > | 100 |
| C=CC1[C@H]2COC(C)(C)O[C@@H]2CC(=O)C1(C)C (stereo partly specified) | µM | > | 100 |
| Cc1cc(/C=C\c2ccc3ccccc3[n+]2C)c(O)c2ncccc12 | µM | = | 6.03 |
| CC[N+](C)(CC)CCC(O)(c1ccccc1)c1ccccc1 | µM | > | 100 |
| CN(C)/N=C/c1cn(C)c(=O)n(C)c1=O | µM | > | 100 |
| COc1ccc2c(c1)/C(=C\c1cccnc1)C(=O)N2 | µM | = | 37 |
| CC1OC2=N[C@@H]1C(=O)N[C@@H](C(C)C)C1=N[C@H](C(=O)N[C@@H](C(C)C)C3=N[C@H](C(=O)N[C@@H](C(C)C)C4=N[C@H](C(=O)N[C@H]2C(C)C)C(C)O4)C(C)O3)C(C)O1 (stereo partly specified) | µM | > | 10 |
| O=Nc1c(-c2c(O)[nH]c3ccc([N+](=O)[O-])cc23)[nH]c2ccc(O)cc12 | µM | = | 0.475 |
| Nc1cccc2c1C(=O)c1cccc(N)c1C2=O | µM | > | 100 |
| O=C(c1ccc2ccccc2c1)c1c(C(F)(F)F)n([O-])c2cc(F)c(F)cc2[n+]1=O | µM | = | 2.97 |
| COc1ccc(-c2cc(=O)c3c(C)cc(C)nc3[nH]2)cc1 | µM | > | 100 |
| COc1ccc(-c2oc3c(OC)c(OC)c(OC)c(O)c3c(=O)c2OC)cc1OC | µM | = | 87.4 |
| CC1CC2CC(=O)CC3(C1)C2CCCN3CCCO (stereo unspecified) | µM | > | 100 |
| CCN(CC)CCNc1ccc([N+](=O)[O-])c2sc3ccccc3c(=O)c12 | µM | = | 3.03 |
| CC(=O)O[C@@H]1C[C@@]23C[C@@]24CC[C@H](OC2OCC(O)C(O)C2O)C(C)(C)[C@@H]4CC=C3[C@]2(C)C[C@@H]3OC4(C[C@@H](C)[C@@H]3[C@@]12C)OC(O)[C@@]1(C)O[C@@H]41 (stereo partly specified) | µM | = | 37.1 |
| CCCCS(=O)CCC(N)C(=O)O (stereo unspecified) | µM | > | 100 |
| O=C(Nc1ccc(F)cc1)c1ccc(NC2=C(Cl)C(=O)N(Cc3ccccc3)C2=O)cc1 | µM | = | 32.2 |
| FC(F)(F)c1cc(-c2nnc3n2N=C(N2CCCC2)CS3)cc(C(F)(F)F)c1 | µM | > | 50 |
| COC(=O)[C@H]1[C@@H](C(C)C)O[C@@H](C(C)C)O[C@H]1C(F)(F)F | µM | > | 100 |
| N=c1oc2ccc3ccccc3c2cc1C(N)=O | µM | > | 100 |
| O=C(O)C1C2CCC(O2)C1C(=O)N1CCCCC1 (stereo unspecified) | µM | = | 8.35 |
| CCc1n(Cc2ccc3ccccc3n2)cc[n+]1Cc1ccc2ccccc2n1 | µM | = | 13 |
| CN(C)c1ccc([O-])cc1.CN(C)c1ccc([O-])cc1.CN(C)c1ccc([O-])cc1.CN(C)c1ccc([O-])cc1.[Ti+4] | µM | > | 100 |
| O=C(/C=C/c1ccccc1)CC1OC(=O)c2ccccc21 (stereo unspecified) | µM | > | 100 |
| COC[C@@H](N=CN1CCc2cc(OC)c(OC)cc2[C@@H]1C)C(C)(C)C | µM | > | 100 |
| CN(C)c1nc(N(C)C)nc(N(C)C23CC4CC(CC(C4)C2)C3)n1 | µM | = | 67.9 |
| C/C(=C\c1ccccn1)c1ccccn1 | µM | > | 100 |
| COc1cc2c(cc1OCCCC(=O)Nc1cc(C(=O)Nc3cc(C(=O)Nc4cc(C(=O)NCCCN(C)C)n(C)n4)n(C)n3)n(C)n1)N=CC1CCCN1C2=O (stereo unspecified) | µM | = | 43.2 |
| COC(=O)C(C(=O)C(=O)Nc1ccc(C(F)(F)F)cc1[N+](=O)[O-])c1csc(-n2nc(-c3ccccc3)cc2-c2ccccc2)n1 (stereo unspecified) | µM | > | 100 |
| CCc1cccc(C(C)C)c1NC(=O)C(=O)CC(=O)c1c(C)n([O-])c2ccccc2[n+]1=O | µM | > | 100 |
| CCOC(=O)C1=C(C(=O)c2ccc(C)cc2)C(c2cccc([N+](=O)[O-])c2)C(C(=O)c2ccc(C)cc2)=C(C(=O)OCC)N1 | µM | = | 68.6 |
